Assay name: Toxicokinetics study, plasma concentration by LC-MS/MS after single i.v. bolus
Assay type: in vivo, rat
Cond: rat, plasma, iv; 18 mg/kg single i.v. bolus; female Sprague Dawley rats; mean ± SE, n = 6; read-out: kel (elimination constant) (converted)
Parameter: k el (s⁻¹)
The answer is to be given in s⁻¹; state only the numeric part.

Reported k el for COc1ccc2nc(Cl)c(/C=[N+](\[O-])C(C)(C)C)cc2c1 [QN23] was 0.000347

----------
Assay name: Toxicokinetics study, plasma concentration by LC-MS/MS after single i.v. bolus
Assay type: in vivo, rat
Cond: rat, iv; 18 mg/kg single i.v. bolus; female Sprague Dawley rats; plasma; mean ± SE, n = 6; read-out: C0 (initial concentration)
Description: For the toxicokinetics study of QN23, female Sprague Dawley rats (9–10 weeks, Envigo, Barcelona, Spain) were divided into three groups (n = 6 per group) and treated intravenously with different concentrations of QN23 (2.0, 6.0, and 18 mg/kg), in vehicle solution (ethanol/polyethylene glycol 400/saline, 1:200:60 v/v), as a single bolus of 1 mL injection at 3 mL/min. […]
Parameter: C0 (ng/mL)
The answer is to be given in ng/mL; state only the numeric part.

Reported C0 for COc1ccc2nc(Cl)c(/C=[N+](\[O-])C(C)(C)C)cc2c1 [QN23] was 4350

----------
Assay name: Toxicokinetics study, plasma concentration by LC-MS/MS after single i.v. bolus
Type: in vivo, rat
Cond: rat, plasma, iv; 18 mg/kg single i.v. bolus; female Sprague Dawley rats; mean ± SE, n = 6; read-out: Cl (clearance) (converted)
Parameter: clearance (mL/min)
The answer is to be given in mL/min; state only the numeric part.

Reported clearance for `COc1ccc2nc(Cl)c(/C=[N+](\[O-])C(C)(C)C)cc2c1` was 78.1

----------
Assay name: Toxicokinetics study, plasma concentration by LC-MS/MS after single i.v. bolus
Format: in vivo, rat
Cond: rat, plasma, iv; 2.0 mg/kg single i.v. bolus; female Sprague Dawley rats; mean ± SE, n = 6; read-out: t1/2 (half-life) (converted)
Parameter: half-life (min)
The answer is to be given in min; state only the numeric part.

Reported half-life for COc1ccc2nc(Cl)c(/C=[N+](\[O-])C(C)(C)C)cc2c1 [QN23] was 9.6

----------
Assay name: Toxicokinetics study, plasma concentration by LC-MS/MS after single i.v. bolus
Type: in vivo, rat
Cond: rat, plasma, iv; 2.0 mg/kg single i.v. bolus; female Sprague Dawley rats; mean ± SE, n = 6; read-out: kel (elimination constant) (converted)
Parameter: k el (s⁻¹)
The answer is to be given in s⁻¹; state only the numeric part.

Reported k el for `COc1ccc2nc(Cl)c(/C=[N+](\[O-])C(C)(C)C)cc2c1` was 0.00118

----------
Assay name: Toxicokinetics study, plasma concentration by LC-MS/MS after single i.v. bolus
Type: in vivo, rat
Cond: rat, plasma, iv; 6.0 mg/kg single i.v. bolus; female Sprague Dawley rats; mean ± SE, n = 6; read-out: t1/2 (half-life) (converted)
Parameter: half-life (min)
The answer is to be given in min; state only the numeric part.

Reported half-life for `COc1ccc2nc(Cl)c(/C=[N+](\[O-])C(C)(C)C)cc2c1` was 14.4

----------
Assay name: Toxicokinetics study, plasma concentration by LC-MS/MS after single i.v. bolus
Format: in vivo, rat
Cond: rat, iv; 2.0 mg/kg single i.v. bolus; female Sprague Dawley rats; plasma; mean ± SE, n = 6; read-out: AUC0–8h
Parameter: AUC(0-t) (ng·h/mL)
The answer is to be given in ng·h/mL; state only the numeric part.

Reported AUC(0-t) for `COc1ccc2nc(Cl)c(/C=[N+](\[O-])C(C)(C)C)cc2c1` was 160
